# Test system: Bacillus subtilis ATCC 6633
Reported MIC values follow for various compounds

| compound | target.under.test | unit.text | qualifier.symbol | MIC |
| --- | --- | --- | --- | --- |
| CC(C)C1C(=O)N2C(C(=O)O)=C(Sc3ccncc3)CC12 (stereo not shown) | Bacillus subtilis ATCC 6633 | µg/mL | = | 0.013 |
| CCC1C(=O)N2C(C(=O)O)=C(Sc3ccncc3)CC12 (stereo not shown) | Bacillus subtilis ATCC 6633 | µg/mL | < | 0.007 |
| CCC1C(=O)N2C(C(=O)O)=C(Sc3ccccn3)CC12 (stereo not shown) | Bacillus subtilis ATCC 6633 | µg/mL | = | 0.012 |
| CC(C)C1C(=O)N2C(C(=O)O)=C(Sc3ccccn3)CC12 (stereo not shown) | Bacillus subtilis ATCC 6633 | µg/mL | = | 0.05 |
